- assay_system: H. halys OBP8 (Halyomorpha halys, UniProt A0A1N7TMV1)
- Sequence (A0A1N7TMV1 23-143): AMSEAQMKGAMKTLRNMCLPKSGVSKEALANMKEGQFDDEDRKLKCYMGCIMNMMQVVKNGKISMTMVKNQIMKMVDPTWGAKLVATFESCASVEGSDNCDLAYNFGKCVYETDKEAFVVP
- assay_procedure: Competitive fluorescence-binding assay with 1-NPN as probe
- condition_context: Kd = [IC50]/(1 + [1-NPN]/K1-NPN), OBP and 1-NPN 2 μM
measurement_label: Kd (µM)

> print(dat)
                          molecule  measurement.label  unit.annotation  result.value
1  CCCCCCC/C=C/C=O [(E)-2-decenal]                 Kd               µM          8.61
